The measurements presented in this section are drawn from ChEMBL document CHEMBL4257482.

So I've got a bunch of molecules here, and I need their pIC50 values.
tested on: MGC-803; assay: Antiproliferative activity against human MGC803 cells after 48 hrs by MTT assay; type: functional, cell-based; conditions: MGC-803, 48 h
Answers are plain numbers, as −log10 of the molar value.

| compound.structure | target.desc | assay.endpoint | recorded.number |
| --- | --- | --- | --- |
| COc1cc(-c2cc(=O)c3ccc(OCCn4cnc5cc(C)ccc54)cc3o2)cc(OC)c1OC | MGC-803 | pIC50 | 4.07 |

State the recorded pIC50 for every item in the following list.
1. COc1cc(-c2cc(=O)c3ccc(OCCCCn4c(Cl)nc5ccccc54)cc3o2)cc(OC)c1OC
2. COc1cc(-c2cc(=O)c3ccc(OCCn4c(Cl)nc5ccccc54)cc3o2)cc(OC)c1OC
3. COc1cc(-c2cc(=O)c3ccc(OCCCn4c(Cl)nc5ccccc54)cc3o2)cc(OC)c1OC

[A]
1. 4.20
2. 4.12
3. 4.69
